- tested_target: T1, scHLA-B27-mmH (engineered HLA-B*27 ectodomain in-line fusion protein) (human (HLA-B*2705, beta-2 …))
- T1 construct: also called soluble HLA-B*27 fusion protein
- test_description: SPR (Biacore), mAb captured, 25 C, HBST pH 7.4
property_name: t1/2 (min)
Give the value in min but do not write min after it.

>>> val("H4H2490N2 (antibody, V domains shown) VH: QVQLVQSGADVKWPGASVKVSCRASGYTFTGYYMHWVRQAPGQGLEWMGWINPNNGGTNYAQKFQGRVTMTRDTSITTVYMELSSLISDDTAVYYCARGEDLELRNYYYYGMDVWGQGTSVTVSS VL: DIQMTQSPSSLSASVGDRVTITCRASQSISSYLNWYQQKPGKAPKLLIYAASNLQSGVPSRFSGSGFGTDFTLTISSLQSEDFATYYCQQTYSTRTFGRGTKVEIK")
1

For the next question, use this binder.
### Prompt Quick one: t1/2 of H4H2477N2 (antibody, V domains shown) VH: QVQLQQWGAGLLKPSETLSLTCAVYGGSFSDYYWSWIRQPPGKGLEWIGEINHRGNTNYNPSLKSRVTISVDTSKNQFSLKLRSVTAADMAVYYCARIQLWLRGYDYYGMDVWGQGTTVTVSS VL: DIQMTQSPSSLSASVGDRVTITCRASQGIRNDLGWYQQKPGKAPKRLIYAASSLQGGVPSRFSGSGSGTEFSLTISSLQPEDFASYYCLQHNTYPWTFGQGTKVEIK ?
### Response 11
